Taken from PubChem BioAssay (NCI).

System: CCRF-CEM leukemia
Experiment: NCI-60 one-dose screen, 48 h (100 = growth as untreated, 0 = no growth, -100 = all killed)
Conditions: 10 µM
The panel holds about 83,000 compounds, 20% with a hit somewhere; the sample as a whole holds those more often.
Can you tell me growth for the items I'm about to list?
Report the value in % with no unit label.

Ask: Bench note: what growth did S=c1nn[nH]c2ccccc12 show?
Result: 111

Ask: Same read-out for Clc1ccc(-c2n[nH]c3c2Cc2ccccc2-3)cc1Cl ?
Result: 89.2

Ask: Same read-out for CC(=O)c1c[nH]c2ccccc12 ?
Result: 102

Ask: Same read-out for c1cc2cccc3c4cccc5cccc(c(c1)c23)c54 ?
Result: 103

Ask: Same read-out for O=C1NC(=O)C2C(=O)NC(=O)C1C21CCc2ccccc21 (centres undefined) ?
Result: 78.6

Ask: Same read-out for CCOC(=O)c1ccc(NC(=S)P(=O)(c2ccccc2)c2ccccc2)cc1 ?
Result: 69.8

Ask: Same read-out for Cc1ccncc1C(N)=O ?
Result: 83.1

Ask: Same read-out for NC(CSC(c1ccccc1)(c1ccccc1)c1ccccc1)C(=O)O (centres undefined) ?
Result: 9.95

Ask: Same read-out for CCCNc1ccc(C2=NCCCN2)cc1 ?
Result: 99.1

Ask: Same read-out for O=[N+]([O-])c1ccc(O)c(S(=O)(=O)O)c1 ?
Result: 102

Ask: Same read-out for CCOc1ccccc1/C=N/Nc1nc2ccccc2o1 ?
Result: 95.8

Ask: Same read-out for O=[N+]([O-])c1ccc(Cl)c(S(=O)(=O)O)c1 ?
Result: 81.3

Ask: Same read-out for CC(=O)Nc1cccc(NC(C)=O)n1 ?
Result: 90.3

Ask: Same read-out for Cc1cc(NC(=O)CSCC(=O)O)no1 ?
Result: 107

Ask: Same read-out for Cc1ncc(C#N)c(N)n1 ?
Result: 126

Ask: Same read-out for CN(C)C(=O)Oc1cccc([N+](C)(C)C)c1 ?
Result: 113

Ask: Same read-out for CC1(C)S(=O)(=O)OCCOS1(=O)=O ?
Result: 78.8

Ask: Same read-out for C=CCOC(=O)C(=O)OCC=C ?
Result: 90.7

Ask: Same read-out for CC1OC(Oc2c(-c3ccc(O)c(O)c3)oc3cc(O)cc(O)c3c2=O)C(O)C(O)C1O (centres undefined) ?
Result: 106

----------
Test system: HOP-92 NSCLC
Assay: NCI-60 one-dose screen, 48 h (100 = growth as untreated, 0 = no growth, -100 = all killed)
Settings: 10 µM
This is part of a sample that, as a whole, favours compounds with a hit. Of some 83,000 tested, about 20% had one in any assay.
MEASURE NAME: growth (%)
Report the value in % with no unit label.

Ask: // map Cc1ccc(C)n1-c1ccsc1C(=O)NNC(=O)CCl to recorded growth (system: HOP-92 NSCLC)
Result: 97.4

Ask: Same read-out for O=[N+]([O-])c1cccc(C(F)(F)F)c1 ?
Result: 87.8

Ask: Same read-out for COc1nc(N)nc2c1ncn2C1OC(CO)CC1O (configuration not stated) ?
Result: 95.3

Ask: Same read-out for CCOC(=O)c1cc(/C=C/c2cccc(Cl)c2)on1 ?
Result: 88.8

Ask: Same read-out for O=[N+]([O-])c1ccc(N=Nc2ccccc2)cc1 ?
Result: 94

Ask: Same read-out for COc1ccc(C2(O)CCCCC2)cc1 ?
Result: 73.2

Ask: Same read-out for CCN(CC)c1ccc2nc3ccc(=[N+](CC)CC)cc-3oc2c1 ?
Result: 15.7

Ask: Same read-out for COc1cccc(COC(=O)Nc2ccccc2)c1OC ?
Result: 109

Ask: Same read-out for COc1ccccc1N1CCN(C(=S)Nc2ccccc2)CC1 ?
Result: 80.9

Ask: Same read-out for COc1cc2c(cc1O)CC[C@@H]1C2CC[C@@]2(C)C1CC[C@@H]2O (some centres not stated) ?
Result: 79.8

Ask: Same read-out for COCCOC(=O)c1ccc(C(C)C)cc1 ?
Result: 81.8

Ask: Same read-out for COC(=O)C(C)Oc1ccc(OC#N)cc1 (configuration not stated) ?
Result: 95.3

Ask: Same read-out for CCCCNC1(C#N)CCN(Cc2ccccc2)CC1 ?
Result: 90.4

Ask: Same read-out for CCCCCCCCO ?
Result: 107

Ask: Same read-out for O=C(O)c1ccnc(Br)c1 ?
Result: 96.9

Ask: Same read-out for c1cc[n+](C2c3ccccc3C([n+]3ccccc3)c3ccccc32)cc1 (configuration not stated) ?
Result: 20.6

Ask: Same read-out for CCC(C)(O)c1ccc(C)cc1 (configuration not stated) ?
Result: 103

Ask: Same read-out for NC(=S)N/N=C/c1ccc(N)cc1 ?
Result: 89.1

Ask: Same read-out for CC(=O)CC(=O)N(C)C ?
Result: 81.8

Ask: Same read-out for COc1cc2c(cc1OC)[C@H](C(=O)O)[C@@H](c1ccc(OC(C)C)c(OC)c1)N(C)C2=O ?
Result: 83.3

Ask: Same read-out for C#C[C@H]1CCCCCC1O (some centres not stated) ?
Result: 87

Ask: Same read-out for CCOC(=O)CSc1c([N+](=O)[O-])ncn1C ?
Result: 113

Ask: Same read-out for CC1(C)OC(=O)C(c2ccsc2)C(=O)O1 ?
Result: 104

Ask: Same read-out for CCCC(=O)Nc1ccc2c(c1)CN1C(=O)c3ccccc3C1=N2 ?
Result: 95.3

Ask: Same read-out for O=C(O)C(c1ccccc1)C(O)c1ccccc1 (configuration not stated) ?
Result: 93

Ask: Same read-out for CCc1nc(N)nc(N)c1-c1ccc(Cl)cc1 ?
Result: 97.7

Ask: Same read-out for O=C(Nc1ccccc1)OCCc1ccccc1 ?
Result: 82.5

Ask: Same read-out for c1ccc2c(c1)Sc1ccccc1S2 ?
Result: 81.8

Ask: Same read-out for CC(C)COC(=O)COC(=O)OCCOCCOC(=O)OCC(=O)OCC(C)C ?
Result: 95.7

Ask: Same read-out for CCCCCCCCOC(=O)c1ccccn1 ?
Result: 107

Ask: Same read-out for NCCCN ?
Result: 103

Ask: Same read-out for OCCN1CCOCC1 ?
Result: 115

Ask: Same read-out for NC(=O)N/N=C\c1ccco1 ?
Result: 102

Ask: Same read-out for O=C(CC(=O)c1ccccc1O)c1ccccc1 ?
Result: 100

Ask: Same read-out for CN1C(=O)CN2CCc3ccccc3C2c2cc(Cl)ccc21 (configuration not stated) ?
Result: 77.2

Ask: Same read-out for CCn1c(=O)n(C)c2c(=O)n(C)c(=O)n(C)c21 ?
Result: 102

Ask: Same read-out for O=S(=O)(O)c1ccc(O)c2ccccc12 ?
Result: 98.8
